Reference source for all entries: the OligoGym collection

Recorded sensor-assay potency score (higher = more potent), one value per entry.
Target Or Test System: CCL28
Test Protocol: pooled miR-30 sensor sort-seq; sequence = guide strand
Protocol Conditions: shRNA
Please give only the number in your answer, with no unit.

* TCCTGTGGCAAACATTTCCTTT | -1.54
* TTCTTCTGCGCTTGACATGAAG | -1.32
* ACACATATTCACTCTTTCCAGG | -1.19
* TTAACAGTATGGTTGTGCGGGC | -0.737
* ATATGATGTGAAACCTCCGTGC | -0.448

Identify measured sensor-assay potency score (higher = more potent) obtained with CCL28 for `TTTCTTGGCAGCTTGCACTTTC` .
0.0736

Enter sensor-assay potency score (higher = more potent) (test system CCL28) for `AATATGATGTGAAACCTCCGTG`
0.282

====

Target Or Test System: TMEM70
Test Protocol: pooled miR-30 sensor sort-seq; sequence = guide strand
Protocol Conditions: shRNA
Observable: sensor-assay potency score (higher = more potent)
Lab note: record just the number, no unit beside it.

Answered cases to consult:
• TAAACAAACATCATTCTCTGGA = 0.0797
• TTTAAGAATCGAACATATCCTT = 0.136
• TAACAATCAGTCACTAACGGAA = -0.91
• TTAACTAACAGTGATTTTGTTT = -0.473
• TTTTGTAATAAAGTGAAGCAGC = -0.766

Lab note: next sequence to report on.
Indicate the recorded sensor-assay potency score (higher = more potent) value for this sequence: `TACAATCGAATGACATAGCCTT`
0.02

====

Target Or Test System: UTP3
Test Protocol: pooled miR-30 sensor sort-seq; sequence = guide strand
Protocol Conditions: shRNA
Kind request: treat -1 as inclusive, so sensor-assay potency score (higher = more potent) at -1 or higher is 1, anything lower is -1.

- TTGATAGGTAATAGCTCTCTTT: -1
- TATTTCTTTATAGTACTTCAGT: 1
- ATCATCTCCATTTTCGTCGGTG: 1
- TTTCGGTAGGTAACAAGCCTTT: -1
- TTTCACTGAAACTTTAGCCAAA: 1
- TAAGTGTCAACAGATGACGAAT: -1

Threshold query (sensor-assay potency score (higher = more potent) >= -1) on `TGAAACTTTAGCCAAATCCTTC`
-1

Decide: sensor-assay potency score (higher = more potent) of `TTTACGAACTTCACGAACCTGG` >= -1?
1

Exam item: decide whether the reported sensor-assay potency score (higher = more potent) for `TTCGTCGTCCTCATCGTCCATA` is at least -1.
1

====

Target Or Test System: FRMD4B
Test Protocol: pooled miR-30 sensor sort-seq; sequence = guide strand
Protocol Conditions: shRNA
Tag: satisfied if measured sensor-assay potency score (higher = more potent) is not below -0.7, not satisfied if it is.

Take a look at these entries with their results.
* TTACTTGCCATGATGAACTGAC | satisfied
* TTTCTTTGCAGCTTCCACCAGC | satisfied
* TTTGCTTTGCTTCCGGTCCAAG | not satisfied
* TAGACATTGCCATAGCAGCTGG | not satisfied
* TTGAAGTAGAAACATTCTGTTT | not satisfied
* TTGTCATCTAATTTGAACGCAG | not satisfied

Is reported sensor-assay potency score (higher = more potent) greater than or equal to -0.7 here: `TATTAGAAAATTACTCTCCAGT`
satisfied
